Source listed as the supplement of paper PMC10567573.

B1: ETS1 (parent)
chain: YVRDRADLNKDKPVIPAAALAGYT

Variants of: B1
Test: protein stability index of a GFP-peptide fusion (GPS, HEK-293T) (PSI 1-6); higher = more stable;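 further: lentivirally expressed fusions sorted by FACS into six bins by GFP to DsRed ratio, PSI derived from sequencing read proportions per bin multiplied by bin number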
Settings: c terminus: a fixed tail appended
Known protein stability index of a selection of variants
The response must contain the number and no unit.

Look over these answered cases.
Reported protein stability index for A19S was 1.86

Reported protein stability index for I15M was 2.7

Reported protein stability index for Y1A was 4.46

Next:
Reported protein stability index for A21H was 2.06

Reported protein stability index for T24A was 2.37

Reported protein stability index for L8Y was 2.9

Reported protein stability index for R5N was 1.94

Reported protein stability index for R5E was 2.36

Reported protein stability index for I15S was 2.36
